B1: ZNF449 (parent)
chain: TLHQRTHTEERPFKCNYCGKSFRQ

Variants of: B1
Assay: protein stability index of a GFP-peptide fusion (GPS, HEK-293T) (PSI 1-6); higher = more stable;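 note: lentivirally expressed fusions sorted by FACS into six bins by GFP to DsRed ratio, PSI derived from sequencing read proportions per bin multiplied by bin number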
Conditions: c terminus: a fixed tail appended
# label = criterion met if protein stability index >= 3 else criterion not met

> print(dat)
    variant              group
 1     K20V  criterion not met
 2     N16T  criterion not met
 3     N16E  criterion not met
 4     F22L  criterion not met
 5      E9S  criterion not met
 6      Q4L  criterion not met
 7     C15I      criterion met
 8      E9Q  criterion not met
 9      Q4W  criterion not met
10     F22C      criterion met
11     R23T  criterion not met
12      T8R  criterion not met
13     C15P      criterion met
14     G19P  criterion not met
15     G19I      criterion met
16     G19F  criterion not met
17      H7F  criterion not met
18     K14T  criterion not met
19     Y17A  criterion not met
20     Y17D  criterion not met
21     S21K  criterion not met
22     N16C  criterion not met
23     S21G  criterion not met
24     C15D      criterion met
25     R23S  criterion not met
26      T1K      criterion met
27      R5Y  criterion not met
28     C15Q      criterion met
29      H7N  criterion not met
30     S21D  criterion not met
31      R5A  criterion not met
32     Q24T  criterion not met
33      T8M  criterion not met
34     K20M  criterion not met
35     C18D      criterion met
36      Q4M  criterion not met
37     N16L  criterion not met
38      H3S  criterion not met
39      H7G  criterion not met
40     C18V  criterion not met
41     F13G  criterion not met
42      H7E  criterion not met
43      H7Y  criterion not met
44     S21F  criterion not met
